assayed_system: human β2AR (human, UniProt P07550 2-365)
measurement_protocol: cell-based or functional assay
Bridge positions count the residues as written; N and C are the ends. Square brackets hold non-standard residues; d marks the D form. Primed or numbered codes have the meaning given here. Azk = residue with azidated side chain, clicked to Pra; Pra′ = residue with alkynyl side chain, clicked to Azk
For each of the binders below, state its IC50 (nM) of isoproterenol, [3H]-DHA RLA, peptidomimetic present.
// return the numeric value with its unit appended

Item under review: Ac-KKKFN[Pra′]CRD[Azk]IQRMHLRQYELL-OH (triazole 6-10) [compound 42] . Reported IC50 (nM) of isoproterenol, [3H]-DHA RLA, peptidomimetic present?
27.4 nM

# input binder: Ac-KFN[Pra′]CRD[Azk]IQRMHLRQYELL-OH (triazole 4-8) [compound 41] ; wanted: its IC50 (nM) of isoproterenol, [3H]-DHA RLA, peptidomimetic present
26 nM

# query: IC50 (nM) of isoproterenol, [3H]-DHA RLA, peptidomimetic present of entry Ac-FN[Pra′]CRD[Azk]IQRMHLRQYELL-OH (triazole 3-7) [compound 12]
37.3 nM

# query: IC50 (nM) of isoproterenol, [3H]-DHA RLA, peptidomimetic present of entry Ac-RFN[Pra′]CRD[Azk]IQRMHLRQYELL-OH (triazole 4-8) [compound 40]
31.3 nM
